B1: glmS ribozyme (parent)
chain: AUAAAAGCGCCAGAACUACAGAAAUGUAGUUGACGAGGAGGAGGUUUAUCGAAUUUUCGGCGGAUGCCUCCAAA

- Variants of: B1
- measurement_description: self-cleavage kobs at 2500 uM GlcN6P; higher = faster cleavage; RNA array
- condition_summary: with glucosamine-6-phosphate
Fewer inactive variants are shown than the library holds.
test_readout: self-cleavage kobs at 2500 uM GlcN6P

{"mutation_string": "A33C A36G", "endpoint_result": "< 1e-05 s⁻¹"}
{"mutation_string": "G37C U45A G60U A64C", "endpoint_result": "< 1e-05 s⁻¹"}
{"mutation_string": "U54G G59U", "endpoint_result": "3.03e-05 s⁻¹"}
{"mutation_string": "A12G A14C A15C", "endpoint_result": "6.38e-05 s⁻¹"}
{"mutation_string": "U30G A33C G40C U54A A64C", "endpoint_result": "< 1e-05 s⁻¹"}
{"mutation_string": "G29U G35A A42U", "endpoint_result": "< 1e-05 s⁻¹"}
{"mutation_string": "A12U A33G A48C", "endpoint_result": "< 1e-05 s⁻¹"}
{"mutation_string": "G13A U54G", "endpoint_result": "0.000363 s⁻¹"}
{"mutation_string": "G9U C10G C16U", "endpoint_result": "< 1e-05 s⁻¹"}
{"mutation_string": "G29U A36G A52G", "endpoint_result": "< 1e-05 s⁻¹"}
{"mutation_string": "A42U A53G", "endpoint_result": "0.000175 s⁻¹"}
{"mutation_string": "G13U A36G G38C C50A", "endpoint_result": "< 1e-05 s⁻¹"}
{"mutation_string": "G38C A52G", "endpoint_result": "< 1e-05 s⁻¹"}
{"mutation_string": "G37A A64C C67G", "endpoint_result": "< 1e-05 s⁻¹"}
{"mutation_string": "A15G C71G", "endpoint_result": "0.00214 s⁻¹"}
{"mutation_string": "A12C G29A U45G U46C", "endpoint_result": "0.000151 s⁻¹"}
{"mutation_string": "A6U U30G G44U A53C", "endpoint_result": "< 1e-05 s⁻¹"}
{"mutation_string": "C16U G29C", "endpoint_result": "0.00422 s⁻¹"}
{"mutation_string": "A6G C10U A39G C58A", "endpoint_result": "< 1e-05 s⁻¹"}
{"mutation_string": "U55A C67U C68G C70A", "endpoint_result": "0.000233 s⁻¹"}
{"mutation_string": "C11G G13U", "endpoint_result": "< 1e-05 s⁻¹"}
{"mutation_string": "C10G A52U G59C", "endpoint_result": "< 1e-05 s⁻¹"}
{"mutation_string": "A6U G9A A42C", "endpoint_result": "< 1e-05 s⁻¹"}
{"mutation_string": "A6U G7A G60U G62U U65G", "endpoint_result": "< 1e-05 s⁻¹"}
{"mutation_string": "C58G G60U", "endpoint_result": "< 1e-05 s⁻¹"}
{"mutation_string": "A42G U65C", "endpoint_result": "0.000535 s⁻¹"}
{"mutation_string": "A15G G29U", "endpoint_result": "0.00118 s⁻¹"}
{"mutation_string": "A48C A64C", "endpoint_result": "< 1e-05 s⁻¹"}
{"mutation_string": "C11A G60U", "endpoint_result": "< 1e-05 s⁻¹"}
{"mutation_string": "U30G A53U", "endpoint_result": "0.00357 s⁻¹"}
{"mutation_string": "A6C C8U C34A", "endpoint_result": "< 1e-05 s⁻¹"}
{"mutation_string": "C11A A39C C70G", "endpoint_result": "< 1e-05 s⁻¹"}
{"mutation_string": "U49G C71A", "endpoint_result": "8.83e-05 s⁻¹"}
{"mutation_string": "G44C A64U", "endpoint_result": "< 1e-05 s⁻¹"}
{"mutation_string": "G29C A36C C61A", "endpoint_result": "< 1e-05 s⁻¹"}
{"mutation_string": "A6C A12G G37A", "endpoint_result": "< 1e-05 s⁻¹"}
{"mutation_string": "U47C A48U", "endpoint_result": "0.000174 s⁻¹"}
{"mutation_string": "G9A G29U A36C", "endpoint_result": "< 1e-05 s⁻¹"}
{"mutation_string": "C8G U57G G59A", "endpoint_result": "< 1e-05 s⁻¹"}
{"mutation_string": "A15C C70A", "endpoint_result": "9.56e-05 s⁻¹"}
{"mutation_string": "U45A C71G", "endpoint_result": "0.00123 s⁻¹"}
{"mutation_string": "G32U G35U", "endpoint_result": "< 1e-05 s⁻¹"}
{"mutation_string": "A52G C71G", "endpoint_result": "0.000157 s⁻¹"}
{"mutation_string": "U31A C50G C58A", "endpoint_result": "0.000414 s⁻¹"}
{"mutation_string": "C11G U30C G37U", "endpoint_result": "< 1e-05 s⁻¹"}
{"mutation_string": "A15C U49G C58G", "endpoint_result": "< 1e-05 s⁻¹"}
